- System: L1210 leukemia ip in BDF1 mice, survival T/C
- ASSAY DETAILS: NCI In Vivo Anticancer Drug Screen. Data for tumor model L1210 Leukemia (intraperitoneal) in B6D2F1 (BDF1) mice
- RECORDED CONDITIONS: endpoint: mean survival time; dose: 50.0 mg/kg/injection; schedule: Q01DX001 (ip); vehicle: saline; higher = longer survival
Toxic doses and inconclusive results are not listed.
Assignment: determine reported T/C for the given compounds.

Record request: T/C value, item COC1=C(Nc2cccc(C)c2C)C(=O)C(OC)=C(Nc2cccc(C)c2C)C1=O 97 % of control

Next up: O=C(CCCC(=O)N/N=C/c1c(O)ccc2ccccc12)N/N=C/c1c(O)ccc2ccccc12 96 % of control

Now consider CN(C)C1=C(Cl)C(=O)c2ccccc2C1=O . 102 % of control

Now this one: CC(Cc1ccccc1)N(C)C(=O)CN1C(=O)c2ccccc2C1=O (stereo unspecified) 103 % of control

Please do the same for NCCCCc1nc(N)nc(N)c1-c1ccc(Cl)cc1 as well. 96 % of control

Next up: Nc1nc(=O)n(C2CC(O)C(CO)O2)cc1Br (stereo unspecified) 109 % of control

Now try Nc1ccc(/C=C\C2(CCl)OCCO2)cc1 . 100 % of control

Further, for O=C(O)c1cccc(-n2cnc3c(=O)[nH]cnc32)c1 ? 108 % of control

And N#Cc1ccc(CCc2ccccc2)cc1 ? 102 % of control

Would you kindly repeat that for CCSC(C(Nc1ccc([N+](=O)[O-])cc1[N+](=O)[O-])C(O)C(O)C(O)CO)n1cc(C)c(=O)[nH]c1=O (stereo unspecified) ? 97 % of control

// repeat for CC(=O)OC1COC(n2cnc3c(=O)[nH]c(N)nc32)C(OC(C)=O)C1OC(C)=O (stereo unspecified) and report 104 % of control

Next record, please: Nc1cc(=O)[nH]c(=S)n1-c1ccc(Br)cc1 93 % of control

Same lookup for O=S(=O)(O)c1ccc(-c2nc3ccccc3[nH]2)cc1 , please. 104 % of control

Another compound to check: OCC(O)C(O)C(O)C(O)C(c1ccc(Br)cc1)c1ccc(Br)cc1 (stereo unspecified) 106 % of control

Now consider O=c1cc(-c2ccccc2)oc2cc(O)cc(O)c12 and answer again. 100 % of control

Could you do the same for c1ccc(C(=NN(CCN(N=C(c2ccccc2)c2ccccc2)c2ccccc2)c2ccccc2)c2ccccc2)cc1 , please? 101 % of control

Then Cc1ccccc1NP1(=O)OCCCN1Cc1ccc(Cl)cc1 (stereo unspecified) ? 106 % of control

Field entry: COc1cc(N(CCCl)CCCl)ccc1/C=N\NC(=O)c1cccnc1 105 % of control

Try the compound OCC(O)C(O)C(O)C(O)C(c1ccc(F)cc1)c1ccc(F)cc1 (stereo unspecified) 98 % of control

Now consider CC(=O)OCC1OC(n2cnc([N+](=O)[O-])c2C#N)C(OC(C)=O)C1OC(C)=O (stereo unspecified) . 102 % of control

Same for CCOc1ccn(C)c(=O)n1 90 % of control

Input O=P(c1ccccc1)(c1ccccc1)c1ccccc1 102 % of control

Another: [Co+3].[NH-]CC(=O)[O-].[NH-]CCN(CC[NH-])CC[NH-].[O-][Cl+3]([O-])([O-])O 103 % of control

# iterate: CCOP(=O)(OCC)OCc1cnc(SC)nc1N 99 % of control

# repeat for CC(C)NC(C)Cc1ccccc1 (stereo unspecified) 91 % of control

Then N#CC1CN2c3ccc4ccccc4c3CCC2C1=O (stereo unspecified) ? 106 % of control
